System: NCI-H522 lung
assay.info: NCI-60 one-dose screen, 48 h
applied.conditions: 10 µM unless noted
Protocol: Growth inhibition of the NCI-H522 human Non-Small Cell Lung tumor cell line is measured as a screen for anti-cancer activity. Cells are grown in 96 well plates and exposed to the test compound for 48 hours. Compounds are tested at a single concentration, which is 10^-5 M for most compounds. The reported endpoint is percent growth (GI% or GIPRCNT), where numbers from 0 - 100% represent growth inhibition, and numbers from -100% - 0 represent cell death. […]
The panel holds about 83,000 compounds, 20% with a hit somewhere; the sample as a whole holds those more often. The source made the active and inactive calls. The calls were made as follows: active = growth percent below 10; inactive = the rest.
Possible outcomes: 1 (active), 0 (inactive)

compound: CC(=O)O[C@H]1C[C@@H]2C(C)(C)C(=O)CC[C@@]2(C)c2ccc(C(C)C)cc21
system.name: NCI-H522 lung
cat: 0

compound: C=C1C(=O)O[C@H]2[C@H]1CC/C(CNC(=O)c1c[nH]c3ccc(F)cc13)=C\CC[C@@]1(C)O[C@@H]21
system.name: NCI-H522 lung
cat: 1

compound: O=C(N/N=C\c1cccc([N+](=O)[O-])c1)N/N=C/c1cccc([N+](=O)[O-])c1
system.name: NCI-H522 lung
cat: 0

compound: CO[C@H](C(=O)[C@@H](O)[C@@H](C)O)[C@@H]1Cc2cc3cc(O[C@H]4C[C@@H](O[C@H]5C[C@@H](O)[C@H](O)C(C)O5)[C@H](O)C(C)(O)O4)cc(O)c3c(O)c2C(=O)[C@H]1O[C@H]1C[C@@H](O[C@H]2C[C@@H](O[C@H]3C[C@@H](OC)[C@H](O)C(C)O3)[C@@H](O)C(C)O2)[C@H](O)C(C)O1 (some centres not stated)
system.name: NCI-H522 lung
cat: 1

compound: COc1ccc2nc(Cl)c(/C=C3\CC(c4ccccc4)=NN(c4ccccc4)C3=O)cc2c1
system.name: NCI-H522 lung
cat: 0

compound: C=CN(C(=O)N1CCN(c2cc3c(cc2F)c(=O)c(C(=O)O)cn3C2CC2)CC1)c1nc(-c2ccc(OC)cc2)cs1
system.name: NCI-H522 lung
cat: 0

compound: COc1ccc(C(=S)N2CCN(c3ccc(Cl)cc3)CC2)cc1
system.name: NCI-H522 lung
cat: 0

compound: COc1ccc(C[n+]2c3ccccc3n3c4ccc(N)cc4ccc32)c(OC)c1OC
system.name: NCI-H522 lung
cat: 0

compound: Cc1ccc(N2C(=O)CCC2=O)cc1
system.name: NCI-H522 lung
cat: 0

compound: COc1ccc(C2CC(c3cc(OC)c(OC)c(OC)c3)=NO2)cc1OCCCCOc1cc2c(cc1OC)C(=O)N1CCC[C@H]1C=N2 (some centres not stated)
system.name: NCI-H522 lung
cat: 1

compound: COc1cc(-c2nc3c(ncc4ccc(=O)n(-c5ccccc5)c43)s2)cc(OC)c1OC
system.name: NCI-H522 lung
cat: 0

compound: COc1ccc(/C=C2\CN(C(=O)C(Cl)Cl)C/C(=C\c3ccc(OC)cc3)C2=O)cc1
system.name: NCI-H522 lung
cat: 0

compound: CCCC(CC)(C(=O)Nc1ccc2nc(C)cc(N)c2c1)C(=O)Nc1ccc2nc(C)cc(N)c2c1
system.name: NCI-H522 lung
cat: 0

compound: O=C(CCCCCNC(=O)c1cc(=O)c(O)co1)Nc1ccccc1
system.name: NCI-H522 lung
cat: 0

compound: Cn1cc(-c2ccc(-c3cn(C)c4ccc(Cl)cc34)[nH]2)c2cc(Cl)ccc21
system.name: NCI-H522 lung
cat: 1

compound: CCOC(=O)c1c(C)nc2ccccc2c1/C=C/c1cccs1
system.name: NCI-H522 lung
cat: 0

compound: Cc1nc2c(c(=O)[nH]1)C(c1ccccc1)c1ccc3ccccc3c1O2 (configuration not stated)
system.name: NCI-H522 lung
cat: 1
